biological target: deoxycytidine kinase (dCK) (Homo sapiens); test: Competition assay for substrates of deoxycytidine kinase, crude extracts of PC-3 cells; conditions: read-out: % Inhibition (dCK)
Sequence (P27707 whole entry): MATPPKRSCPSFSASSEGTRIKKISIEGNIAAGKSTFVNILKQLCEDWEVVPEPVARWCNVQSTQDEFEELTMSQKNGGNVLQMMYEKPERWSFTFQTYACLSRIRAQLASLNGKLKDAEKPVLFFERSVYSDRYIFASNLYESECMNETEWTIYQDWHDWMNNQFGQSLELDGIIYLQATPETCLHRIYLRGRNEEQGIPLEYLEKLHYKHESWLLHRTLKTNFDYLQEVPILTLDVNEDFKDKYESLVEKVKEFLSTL
Consider the following compounds; for each one, report its inhibition at 250 µM.
Report only the number, with the unit % understood.

INPUT: Lookup: inhibition at 250 µM / deoxycytidine kinase (dCK) (Homo sapiens) / O=c1ccn([C@@H]2O[C@H](CO)[C@@H](O)[C@H]2O)c(=O)[nH]1 [Uridine]
OUTPUT: 0

INPUT: Then this compound: Nc1nc(=O)n([C@H]2C[C@H](O)[C@@H](CO)O2)cc1I [5-IdC, 5-Iodo-2′-deoxycytidine]
OUTPUT: 0

INPUT: Then this compound: Nc1nc(=O)n([C@H]2C[C@H](O)[C@@H](CO)O2)cc1C(F)(F)F [5-TrifluoromethyldC, 5-Trifluoromethyl-2′-deoxycytidine]
OUTPUT: 0

INPUT: Then this compound: Nc1nc(=O)n([C@H]2C[C@H](O)[C@@H](CO)O2)cc1Br [5-BrdC, 5-Bromo-2′-deoxycytidine]
OUTPUT: 0

INPUT: Then this compound: Nc1nc(=O)n([C@H]2C[C@H](O)[C@@H](CO)O2)cc1Cl [5-Chlorodeoxycytidine, 5-chloro-2′-deoxycytidine, reference compound]
OUTPUT: 72

INPUT: Then this compound: Nc1nc(=O)n([C@H]2C[C@H](O)[C@@H](CO)O2)cc1F [5-Fluorodeoxycytidine, reference compound]
OUTPUT: 90

###

biological target: cytidine deaminase (CD) (Homo sapiens); construct: Crude extracts of PC-3 cells in culture were prepared as described above; endogenous in cells; host or cells: PC-3 cells (crude extract supernatant); test: Competition assay for substrates of cytidine deaminase, crude extracts of PC-3 cells; format: biochemical; conditions: competition studies, human tumor cell extracts
Sequence (P32320 whole entry): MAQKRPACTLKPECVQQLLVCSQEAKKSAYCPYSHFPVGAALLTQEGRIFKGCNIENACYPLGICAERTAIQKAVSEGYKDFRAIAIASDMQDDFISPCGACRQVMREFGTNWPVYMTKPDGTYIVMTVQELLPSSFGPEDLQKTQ
Property label: substrate for cytidine deaminase (in words)

1. Nc1nc(=O)n([C@H]2C[C@H](O)[C@@H](CO)O2)cc1I : good substrates
2. Nc1nc(=O)n([C@H]2C[C@H](O)[C@@H](CO)O2)cc1Br : good substrates
